Consider the following compounds and their measured inhibition at 20 µg/mL readings.
System: mouse leukemia L-1210 cells
Test: growth inhibitory activity to cancer cells in vitro (L-1210, 48 hours)
Assay type: cell-based
Conditions: L1210, 20 mcg/ml, read-out: Growth inhibition (%), (1-T/C) × 100

These recorded examples may help you get a feel for the data.
Task item: May I ask what inhibition at 20 µg/mL has been recorded for N=C(N)NCCCCCCC(=O)NC(OCc1ccccc1)C(=O)NCCCCNCCCN (stereo not drawn) ?
Reply: 97.7%

Task item: Data request, read-out inhibition at 20 µg/mL, for N=C(N)NCCCCCCC(O)CC(=O)NC(O)C(=O)NCCCCNCCCN (stereo not drawn)
Reply: 51.6%

Task item: Could you share which inhibition at 20 µg/mL value was measured for CCOC(NC(=O)CCCCCCNC(=N)N)C(=O)NCCCCNCCCN (stereo not drawn) ?
Reply: 47.3%

Task item: What inhibition at 20 µg/mL value was documented for this compound, COC(NC(=O)CCCCCCCNC(=N)N)C(=O)NCCCCNCCCN (stereo not drawn) ?
Reply: 36.5%

Task item: Quick one: inhibition at 20 µg/mL for N=C(N)NCCCCCCC(=O)NC(OCCO)C(=O)NCCCCNCCCN (stereo not drawn) ?
Reply: 29.9%

Next:
Task item: // lookup inhibition at 20 µg/mL for N=C(N)NCCCCCC(O)CC(=O)NC(O)C(=O)NCCCCNCCCN (stereo not drawn)
Reply: 45.7%

Task item: Would you mind telling me what inhibition at 20 µg/mL value was observed for COC(NC(=O)CCCCCCNC(=N)N)C(=O)NCCCCNCCCN (racemic) ?
Reply: 62.3%

Task item: Please give the measured inhibition at 20 µg/mL for this compound: N=C(N)NCCCCC=CC(=O)NC(O)C(=O)NCCCCNCCCN (stereo not drawn)
Reply: 56.3%

Task item: So what's the measured inhibition at 20 µg/mL for this one? CCCCOC(NC(=O)C[C@@H](O)CCCCNC(=N)N)C(=O)NCCCCNCCCN (stereo partly drawn)
Reply: 95%

====

Experiment: acute toxicity in mice (single intraperitoneal administration)
Conditions: mouse, in vivo, ip; mice, single i.p.; read-out: LD50 (median lethal dose on single administration)
LD50 values for the compounds below.

Answered examples (2):
Task item: Requested read-out: LD50. Entry: N=C(N)NCCCCCCC=CC(=O)NC(O)C(=O)NCCCCNCCCN (stereo not shown) [Compound 18]
Reply: 6.25 to 12.5 mg/kg

Task item: Using the record for N=C(N)NCCCCC(=O)NC(O)C(=O)NCCCCNCCCN (stereo not shown) [Compound 2] , report its LD50.
Reply: > 50 mg/kg

New cases:
Task item: Reported LD50, compound N=C(N)NCCCCCCCCC(=O)NC(O)C(=O)NCCCCNCCCN (stereo not shown) [Compound 6] : ____
Reply: 12.5 to 25 mg/kg

Task item: Using the record for COC(NC(=O)CCCCCCCCNC(=N)N)C(=O)NCCCCNCCCN (stereo not shown) [Compound 11] , report its LD50.
Reply: 12.5 to 25 mg/kg

Task item: Which LD50 value is on record for N=C(N)NCCCCCC(O)CC(=O)NC(O)C(=O)NCCCCNCCCN (stereo not shown) [Compound 20] ?
Reply: > 50 mg/kg

====

Overview of recorded remaining at 4 h for various compounds
Experiment: chemical stability: retention (%) after heating at 60° C. for 4 hours, by HPLC
Format: physicochemical
Settings: pH 10, pH 10
Write down the numeric answer in % and omit the unit.

Example entries begin here.
Task item: Which remaining at 4 h reading was recorded for the compound N=C(N)NCCCCCCC(=O)NC(OCCO)C(=O)NCCCCNCCCN (stereo not shown) ?
Reply: 97.3

Task item: Which remaining at 4 h value is on record for N=C(N)NCCCC[C@H](O)CC(=O)NC(OCCO)C(=O)NCCCCNCCCN (stereo partly shown) ?
Reply: 95.5

Task item: Reported remaining at 4 h for COC(NC(=O)C[C@@H](O)CCCCNC(=N)N)C(=O)NCCCCNCCCN (single isomer, unassigned; (-)) [22 (-), (-)-11-O-methylspergualin] : what is it?
Reply: 95.7

Could you now look at the following compound, please?
Task item: What does the data say about its remaining at 4 h? Entry: CCCCOC(NC(=O)C[C@@H](O)CCCCNC(=N)N)C(=O)NCCCCNCCCN (stereo partly shown)
Reply: 94.8

====

Test: acute toxicity in mice (single intraperitoneal administration)
Conditions: mouse, in vivo, ip; mice, single i.p.; read-out: LD50 (median lethal dose on single administration)
measured_endpoint: LD50

Task item: Would you mind telling me what LD50 value was observed for COC(NC(=O)CCCCCCNC(=N)N)C(=O)NCCCCNCCCN (racemic) ?
Reply: 12.5 to 25 mg/kg

Task item: // returns reported LD50 for input N=C(N)NCCCCCCC(=O)NC(OCc1ccccc1)C(=O)NCCCCNCCCN (stereo not drawn)
Reply: 12.5 to 25 mg/kg

Task item: // lookup LD50 for N=C(N)NCCCCCC=CC(=O)NC(O)C(=O)NCCCCNCCCN (stereo not drawn)
Reply: 12.5 to 25 mg/kg

Task item: Which LD50 value belongs to COC(NC(=O)CCCCCCCNC(=N)N)C(=O)NCCCCNCCCN (stereo not drawn) ?
Reply: 12.5 to 25 mg/kg

Task item: // returns reported LD50 for input N=C(N)NCCCCCC(=O)NC(O)C(=O)NCCCCNCCCN (stereo not drawn)
Reply: > 50 mg/kg

Task item: Could you share which LD50 value was measured for N=C(N)NCCCC(=O)NC(O)C(=O)NCCCCNCCCN (stereo not drawn) ?
Reply: > 50 mg/kg

Task item: If you can, please state the reported LD50 value of COC(NC(=O)C=CCCCCNC(=N)N)C(=O)NCCCCNCCCN (stereo not drawn) .
Reply: 12.5 to 25 mg/kg

Task item: Which LD50 is listed for N=C(N)NCCCCCCCC(=O)NC(O)C(=O)NCCCCNCCCN (stereo not drawn) ?
Reply: 25 to 50 mg/kg

Proceed to the following item.
Task item: Sample COC(NC(=O)CCCCCNC(=N)N)C(=O)NCCCCNCCCN (stereo not drawn) — what was its LD50?
Reply: 25 to 50 mg/kg

====

Experiment: chemical stability: retention (%) after heating at 60° C. for 4 hours, by HPLC
Assay type: physicochemical
Settings: pH 10, pH 10
measured_endpoint: remaining at 4 h (%)
Number only, in %; omit the unit.

Task item: Recorded remaining at 4 h for N=C(N)NCCCCCCC(=O)NC(OCc1ccccc1)C(=O)NCCCCNCCCN (stereo not shown) [Compound 15] , please?
Reply: 96.2

Further cases:
Task item: Given the compound CCCCOC(NC(=O)CCCCCCNC(=N)N)C(=O)NCCCCNCCCN (stereo not shown) [Compound 13] , what is its reported remaining at 4 h?
Reply: 96

Task item: Recorded remaining at 4 h for N=C(N)NCCCC[C@H](O)CC(=O)NC(OCc1ccccc1)C(=O)NCCCCNCCCN (stereo partly shown) [Compound 26] , please?
Reply: 94.5

Task item: Would you kindly share the measured remaining at 4 h for COC(NC(=O)CCCCCCNC(=N)N)C(=O)NCCCCNCCCN (racemic) [Compound 9] ?
Reply: 97.9

====

The entries below come with measured remaining at 4 h values attached.
Experiment: chemical stability: retention (%) after heating at 60° C. for 4 hours, by HPLC
Type: physicochemical
Settings: pH 5, pH 5
Unit % implied. Number only.

In the examples that follow, each entry is paired with its recorded remaining at 4 h.
Task item: Entry N=C(N)NCCCC[C@H](O)CC(=O)NC(O)C(=O)NCCCCNCCCN (single isomer, unassigned; (-)) [(-)-spergualin, reference compound] has what remaining at 4 h?
Reply: 82.5

Task item: Form field: reported remaining at 4 h of N=C(N)NCCCC[C@H](O)CC(=O)NC(OCCO)C(=O)NCCCCNCCCN (stereo partly drawn) [Compound 25]
Reply: 100

Task item: Query (molecule): COC(NC(=O)CCCCCCNC(=N)N)C(=O)NCCCCNCCCN (racemic) [Compound 9] ; field requested: remaining at 4 h
Reply: 100

Task item: Tell me the measured remaining at 4 h of COC(NC(=O)C[C@@H](O)CCCCNC(=N)N)C(=O)NCCCCNCCCN (single isomer, unassigned; (-)) [22 (-), (-)-11-O-methylspergualin] , please.
Reply: 100

Task item: Returns the measured remaining at 4 h for the input molecule. Input: N=C(N)NCCCC[C@H](O)CC(=O)NC(OCc1ccccc1)C(=O)NCCCCNCCCN (stereo partly drawn) [Compound 26]
Reply: 100

Moving on to the next molecule.
Task item: Data request, read-out remaining at 4 h, for CCCCOC(NC(=O)C[C@@H](O)CCCCNC(=N)N)C(=O)NCCCCNCCCN (stereo partly drawn) [Compound 24]
Reply: 100

====

System: mouse leukemia L-1210 cells
Test: growth inhibitory activity to cancer cells in vitro (L-1210, 48 hours)
Type: cell-based
Conditions: L1210, 20 mcg/ml, read-out: Growth inhibition (%), (1-T/C) × 100
Quick reference: inhibition at 20 µg/mL of the listed items.
# number only, unit % dropped from output

Recorded inhibition at 20 µg/mL, per entry:
Task item: inhibition at 20 µg/mL lookup needed for N=C(N)NCCCCCCC=CC(=O)NC(O)C(=O)NCCCCNCCCN (stereo not drawn) , thanks.
Reply: 29.5

Task item: Reported inhibition at 20 µg/mL, molecule N=C(N)NCCCCC(=O)NC(O)C(=O)NCCCCNCCCN (stereo not drawn) : ____
Reply: 77.6

Task item: Look up inhibition at 20 µg/mL: CCCCOC(NC(=O)CCCCCCNC(=N)N)C(=O)NCCCCNCCCN (stereo not drawn)
Reply: 65.7

More entries:
Task item: What value of measured inhibition at 20 µg/mL is listed for COC(NC(=O)CCCCCNC(=N)N)C(=O)NCCCCNCCCN (stereo not drawn) ?
Reply: 46.8

Task item: State the recorded inhibition at 20 µg/mL for this entry: N=C(N)NCCCCCCC(=O)NC(O)C(=O)NCCCCNCCCN (stereo not drawn)
Reply: 75.5

Task item: What does the record list as inhibition at 20 µg/mL for COC(NC(=O)C=CCCCCNC(=N)N)C(=O)NCCCCNCCCN (stereo not drawn) ?
Reply: 75.6

Task item: // lookup inhibition at 20 µg/mL for N=C(N)NCCCC[C@H](O)CC(=O)NC(OCc1ccccc1)C(=O)NCCCCNCCCN (stereo partly drawn)
Reply: 96.6

Task item: Item N=C(N)NCCCCCC=CC(=O)NC(O)C(=O)NCCCCNCCCN (stereo not drawn) has what recorded inhibition at 20 µg/mL?
Reply: 33.7

Task item: I have this molecule here, N=C(N)NCCCCCCCCC(=O)NC(O)C(=O)NCCCCNCCCN (stereo not drawn) , and I need its recorded inhibition at 20 µg/mL.
Reply: 57.5
